- target_entity: KDR (Homo sapiens)
- test_description: KDR enzyme inhibitory activity (32P-ATP, SDS-PAGE)
- Type: biochemical
- Set-up: The KDR protein (812-1346AA) was prepared from SF21 insect cells; made in house; host or cells: SF21 insect cells (Bac to Bac baculovirus system)
- Sequence (P35968 812-1346): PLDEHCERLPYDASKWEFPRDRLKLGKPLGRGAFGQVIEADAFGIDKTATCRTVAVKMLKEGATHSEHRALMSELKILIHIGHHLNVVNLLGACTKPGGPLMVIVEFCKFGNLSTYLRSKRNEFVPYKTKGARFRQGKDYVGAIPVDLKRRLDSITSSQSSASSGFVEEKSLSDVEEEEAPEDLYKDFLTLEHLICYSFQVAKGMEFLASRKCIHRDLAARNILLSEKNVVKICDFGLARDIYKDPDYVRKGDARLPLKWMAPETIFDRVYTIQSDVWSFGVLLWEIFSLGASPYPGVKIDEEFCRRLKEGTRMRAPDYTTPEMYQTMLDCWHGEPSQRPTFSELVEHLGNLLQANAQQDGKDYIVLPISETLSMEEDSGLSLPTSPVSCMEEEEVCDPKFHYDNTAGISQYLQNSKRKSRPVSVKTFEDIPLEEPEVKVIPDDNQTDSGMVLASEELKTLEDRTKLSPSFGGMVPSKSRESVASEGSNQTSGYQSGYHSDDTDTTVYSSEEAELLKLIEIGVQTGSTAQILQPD
assay_endpoint: IC50

Output measured IC50 for this item: COc1cc(Oc2ccnc3cc(OC)c(OC)cc23)ccc1NC(=S)NC(=O)Cc1ccc(F)cc1 [Compound A]
≥ 1000 nM

----------
- target_entity: KDR (Homo sapiens, UniProt P35968)
- test_description: KDR autophosphorylation inhibition in HUVEC, VEGF stimulated
- Format: cell-based
- Set-up: endogenous in cells; host or cells: HUVEC
- conditions: 50 ng/ml VEGF
- Sequence (P35968 20-1356): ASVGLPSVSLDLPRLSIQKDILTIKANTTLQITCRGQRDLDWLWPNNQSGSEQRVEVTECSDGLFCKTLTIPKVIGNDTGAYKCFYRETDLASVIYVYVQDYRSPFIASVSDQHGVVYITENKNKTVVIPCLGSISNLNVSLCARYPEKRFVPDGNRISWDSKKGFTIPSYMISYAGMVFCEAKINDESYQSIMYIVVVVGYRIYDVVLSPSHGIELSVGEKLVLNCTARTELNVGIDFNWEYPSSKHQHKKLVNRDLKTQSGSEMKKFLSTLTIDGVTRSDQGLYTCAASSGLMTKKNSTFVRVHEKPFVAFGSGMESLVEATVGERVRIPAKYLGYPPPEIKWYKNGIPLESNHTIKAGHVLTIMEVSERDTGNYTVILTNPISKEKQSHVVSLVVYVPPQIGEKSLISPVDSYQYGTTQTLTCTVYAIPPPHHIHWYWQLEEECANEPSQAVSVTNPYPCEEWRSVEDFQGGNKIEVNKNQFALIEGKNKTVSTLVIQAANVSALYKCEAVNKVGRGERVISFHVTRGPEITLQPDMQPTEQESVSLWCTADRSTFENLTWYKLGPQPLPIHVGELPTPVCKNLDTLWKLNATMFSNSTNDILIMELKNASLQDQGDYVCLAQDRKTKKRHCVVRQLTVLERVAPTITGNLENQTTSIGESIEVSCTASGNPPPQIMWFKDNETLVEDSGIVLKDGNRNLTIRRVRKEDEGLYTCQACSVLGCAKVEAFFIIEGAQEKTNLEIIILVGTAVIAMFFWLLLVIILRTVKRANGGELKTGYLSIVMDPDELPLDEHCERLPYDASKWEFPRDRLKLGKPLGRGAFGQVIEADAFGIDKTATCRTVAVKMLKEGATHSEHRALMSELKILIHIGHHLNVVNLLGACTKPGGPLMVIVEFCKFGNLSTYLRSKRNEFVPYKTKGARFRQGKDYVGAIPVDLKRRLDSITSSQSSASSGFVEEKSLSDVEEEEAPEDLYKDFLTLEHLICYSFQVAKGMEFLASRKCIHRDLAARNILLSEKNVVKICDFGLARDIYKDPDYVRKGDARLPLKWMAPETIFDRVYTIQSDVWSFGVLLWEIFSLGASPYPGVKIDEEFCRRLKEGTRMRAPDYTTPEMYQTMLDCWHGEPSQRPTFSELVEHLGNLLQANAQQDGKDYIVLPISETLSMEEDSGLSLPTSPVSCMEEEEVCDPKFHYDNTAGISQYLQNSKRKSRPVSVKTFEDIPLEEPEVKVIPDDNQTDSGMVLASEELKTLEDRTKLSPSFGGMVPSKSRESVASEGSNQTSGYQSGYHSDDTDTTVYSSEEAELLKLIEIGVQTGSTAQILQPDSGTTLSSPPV
assay_endpoint: IC50

Using the record for COc1cc(Oc2ccnc3cc(OC)c(OC)cc23)ccc1NC(=S)NC(=O)Cc1ccc(F)cc1 [Compound A] , state its measured IC50.
≥ 1000 nM

----------
The molecules listed here are annotated with their pIC50.
- target_entity: c-Met (Homo sapiens)
- test_description: Measurement (2) of inhibitory activity against c-Met autophosphorylation using ELISA method (MKN45 cells)
- Format: cell-based
- Design: endogenous in cells; host or cells: MKN45
- conditions: c-Met phosphorylation in MKN45 cells, no HGF
- Sequence (P08581 25-1390): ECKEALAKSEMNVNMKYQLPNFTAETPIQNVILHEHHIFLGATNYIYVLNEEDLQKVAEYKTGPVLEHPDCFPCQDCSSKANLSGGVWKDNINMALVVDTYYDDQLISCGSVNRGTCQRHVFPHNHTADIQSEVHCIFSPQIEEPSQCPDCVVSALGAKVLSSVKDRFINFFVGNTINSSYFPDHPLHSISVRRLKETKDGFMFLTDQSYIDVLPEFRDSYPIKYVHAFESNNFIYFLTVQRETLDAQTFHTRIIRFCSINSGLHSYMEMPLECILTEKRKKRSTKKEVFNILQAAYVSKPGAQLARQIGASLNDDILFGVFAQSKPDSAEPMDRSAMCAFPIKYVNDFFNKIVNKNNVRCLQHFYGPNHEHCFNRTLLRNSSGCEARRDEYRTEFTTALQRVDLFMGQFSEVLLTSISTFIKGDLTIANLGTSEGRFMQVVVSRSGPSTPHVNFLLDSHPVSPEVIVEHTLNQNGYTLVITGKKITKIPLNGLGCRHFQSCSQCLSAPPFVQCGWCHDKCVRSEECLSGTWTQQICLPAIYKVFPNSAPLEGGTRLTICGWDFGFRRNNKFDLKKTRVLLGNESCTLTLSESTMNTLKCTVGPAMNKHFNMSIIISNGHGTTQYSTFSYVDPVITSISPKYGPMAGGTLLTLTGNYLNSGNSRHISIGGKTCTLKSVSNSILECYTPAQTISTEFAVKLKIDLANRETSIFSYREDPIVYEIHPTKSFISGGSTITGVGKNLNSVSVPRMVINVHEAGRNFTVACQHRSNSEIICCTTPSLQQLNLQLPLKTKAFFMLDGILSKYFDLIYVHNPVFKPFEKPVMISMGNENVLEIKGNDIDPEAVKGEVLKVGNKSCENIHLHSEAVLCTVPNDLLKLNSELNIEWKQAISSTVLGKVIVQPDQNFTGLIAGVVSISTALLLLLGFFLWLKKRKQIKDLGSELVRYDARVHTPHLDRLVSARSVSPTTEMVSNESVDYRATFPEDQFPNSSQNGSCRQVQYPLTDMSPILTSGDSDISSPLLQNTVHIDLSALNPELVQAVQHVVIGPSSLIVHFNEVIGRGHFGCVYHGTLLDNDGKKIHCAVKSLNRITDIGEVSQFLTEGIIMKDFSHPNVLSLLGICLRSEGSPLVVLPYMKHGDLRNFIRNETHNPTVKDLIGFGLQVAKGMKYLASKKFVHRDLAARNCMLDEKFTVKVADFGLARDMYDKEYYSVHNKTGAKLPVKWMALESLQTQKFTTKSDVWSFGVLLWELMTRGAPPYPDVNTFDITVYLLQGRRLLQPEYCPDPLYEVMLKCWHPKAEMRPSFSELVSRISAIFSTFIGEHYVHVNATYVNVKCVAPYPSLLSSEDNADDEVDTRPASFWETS
On this scale, pIC50 is minus log10 of a concentration expressed in M (mol/L).

Check out these entries, answers already filled in.
- molecule: "COc1cc(Oc2ccnc3cc(OC)c(OC)cc23)ccc1NC(=S)NC(=O)Cn1ncc2ccccc21 [Example 15]"
  target_entity: "c-Met (Homo sapiens)"
  pIC50: 7.88
- molecule: "Cn1ccnc1-c1cc2nccc(Oc3ccc(NC(=S)NC(=O)Cc4ccc(F)cc4)cc3Cl)c2s1 [Example 1]"
  target_entity: "c-Met (Homo sapiens)"
  pIC50: 7.48
- molecule: "COc1cc2nccc(Oc3ccc(NC(=O)NC(=O)Cn4ccc5ccccc54)cc3F)c2cc1OC [Example 16]"
  target_entity: "c-Met (Homo sapiens)"
  pIC50: 7.44

Switching to the query record.
Report pIC50 from c-Met (Homo sapiens) testing of COc1cc2nccc(Oc3ccc(NC(=O)NC(=O)Cn4ncc5ccccc54)cc3F)c2cc1OC [Example 14]
7.65

----------
- target_entity: c-Met (Homo sapiens, UniProt P08581)
- test_description: c-Met autophosphorylation inhibition in culture cells MKN45 (immunoprecipitation/blot)
- Type: cell-based
- Parameters: endogenous in cells; host or cells: MKN45
- conditions: c-Met (MKN45), without stimulation
assay_endpoint: pIC50
A value of pIC50 is the negative decimal logarithm of a concentration given in moles per litre.

Recall and state the measured pIC50 for COc1cc(Oc2ccnc3cc(OC)c(OC)cc23)ccc1NC(=S)NC(=O)Cc1ccc(F)cc1 .
7.95

----------
Catalogue of IC50 readings, one per entry.
- target_entity: UniProt:P08581
- test_description: Measurement of human c-Met enzyme inhibitory activity (ELISA, Poly Glu:Tyr)
- Type: biochemical
- Design: a part (955 to 1368aa) around human c-Met kinase domain; GST; made in house; host or cells: SF9 insect cells (baculovirus)
- conditions: human c-Met kinase domain (955 to 1368aa), ATP 10 μM
- Sequence (P08581 955-1368): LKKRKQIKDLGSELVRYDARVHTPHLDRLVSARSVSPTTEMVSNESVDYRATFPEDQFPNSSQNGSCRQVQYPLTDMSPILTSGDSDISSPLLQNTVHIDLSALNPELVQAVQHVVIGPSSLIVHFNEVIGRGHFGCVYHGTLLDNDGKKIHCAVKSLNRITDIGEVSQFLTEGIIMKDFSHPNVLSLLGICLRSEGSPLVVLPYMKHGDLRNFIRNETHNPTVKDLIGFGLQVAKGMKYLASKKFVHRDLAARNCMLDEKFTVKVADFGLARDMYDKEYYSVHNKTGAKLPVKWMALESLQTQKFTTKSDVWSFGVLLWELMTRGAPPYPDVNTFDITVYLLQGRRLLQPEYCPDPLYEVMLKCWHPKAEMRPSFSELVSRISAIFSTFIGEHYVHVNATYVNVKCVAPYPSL
Number only, in nM; omit the unit.

In the examples that follow, each entry is paired with its recorded IC50.
- compound_smiles: "Cn1ccnc1-c1cc2nccc(Oc3ccc(NC(=S)NC(=O)Cc4ccc(F)cc4)cc3Cl)c2s1"
  assay_endpoint: "IC50"
  recorded_measurement: 3.2
- compound_smiles: "COc1cc(Oc2ccnc3cc(OC)c(OC)cc23)ccc1NC(=S)NC(=O)Cn1ncc2ccccc21"
  assay_endpoint: "IC50"
  recorded_measurement: 9.6

Report IC50 on UniProt:P08581 for this entry: COc1cc2nccc(Oc3ccc(NC(=O)NC(=O)Cn4ncc5ccccc54)cc3F)c2cc1OC
12.5

----------
- target_entity: c-Met (Homo sapiens)
- test_description: c-Met enzyme inhibitory activity (32P-ATP, SDS-PAGE)
- Type: biochemical
- Parameters: purchased upstate 14-526
- Sequence (P08581 974-1390 limits assumed): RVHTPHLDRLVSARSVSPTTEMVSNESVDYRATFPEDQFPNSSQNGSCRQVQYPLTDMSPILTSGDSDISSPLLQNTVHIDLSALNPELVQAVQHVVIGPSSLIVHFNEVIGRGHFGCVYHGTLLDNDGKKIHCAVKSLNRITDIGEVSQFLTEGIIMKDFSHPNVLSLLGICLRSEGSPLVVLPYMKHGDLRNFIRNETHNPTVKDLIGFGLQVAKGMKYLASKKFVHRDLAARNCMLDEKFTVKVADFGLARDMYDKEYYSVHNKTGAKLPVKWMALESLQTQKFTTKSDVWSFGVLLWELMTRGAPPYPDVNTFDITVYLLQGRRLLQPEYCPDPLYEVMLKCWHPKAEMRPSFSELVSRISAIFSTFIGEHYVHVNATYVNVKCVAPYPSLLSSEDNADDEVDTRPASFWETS
assay_endpoint: IC50
Answer format: value, then unit.

Note IC50 for the compound shown: COc1cc(Oc2ccnc3cc(OC)c(OC)cc23)ccc1NC(=S)NC(=O)Cc1ccc(F)cc1
15.5 nM
